# system_tested: Bombesin receptor subtype-3 (Homo sapiens)
# Sequence (P32247 whole entry): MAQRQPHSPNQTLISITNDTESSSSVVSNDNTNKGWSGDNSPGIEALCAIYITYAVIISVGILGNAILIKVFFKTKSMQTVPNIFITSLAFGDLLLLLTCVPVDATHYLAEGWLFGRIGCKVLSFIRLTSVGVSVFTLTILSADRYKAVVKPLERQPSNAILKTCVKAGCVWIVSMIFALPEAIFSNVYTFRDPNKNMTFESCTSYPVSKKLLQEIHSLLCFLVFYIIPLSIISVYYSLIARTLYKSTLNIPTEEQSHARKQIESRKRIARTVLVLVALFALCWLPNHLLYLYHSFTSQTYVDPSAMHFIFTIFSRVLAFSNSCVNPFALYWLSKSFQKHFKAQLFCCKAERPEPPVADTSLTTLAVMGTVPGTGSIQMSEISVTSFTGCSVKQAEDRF
# experiment: Agonistic activity at human BRS3 expressed in HEK293AEO cells by aequorin bioluminescence assay
Strictly below 0.3 µM in EC50: true (1). Otherwise: false (0).

> print(dat)
                                    compound                             system.tested      group
 1  CC(C)CCc1cnc(CCc2ccc(-c3ccccc3C(=O)O)cc2)[nH]1  Bombesin receptor subtype-3 (Homo sapiens)   true (1)
 2  CCCCc1cnc(C(CCCC)Cc2ccc(-c3ccccc3C(=O)O)cc2)[nH]1 (stereo unspecified)  Bombesin receptor subtype-3 (Homo sapiens)  false (0)
 3  CCCCc1cnc(C(Cc2ccc(-c3ccccc3C(=O)O)cc2)C(C)C)[nH]1 (stereo unspecified)  Bombesin receptor subtype-3 (Homo sapiens)  false (0)
 4  CCCCc1cnc(CCc2ccc(-c3ccccc3C(=O)O)cc2)[nH]1  Bombesin receptor subtype-3 (Homo sapiens)  false (0)
 5  N#Cc1ccc(Cc2cnc(CCc3ccc(-c4ccccc4C(=O)O)cc3)[nH]2)cc1  Bombesin receptor subtype-3 (Homo sapiens)  false (0)
 6  CC(C)(C)CCc1cnc(CCc2ccc(-c3ccccc3C(=O)O)cc2)[nH]1  Bombesin receptor subtype-3 (Homo sapiens)   true (1)
 7  O=C(O)c1ccccc1-c1ccc(CCc2ncc(Cc3ccccc3)[nH]2)cc1  Bombesin receptor subtype-3 (Homo sapiens)   true (1)
 8  O=C(O)c1ccccc1-c1ccc(CCc2ncc(Cc3ccc(Cl)cc3)[nH]2)cc1  Bombesin receptor subtype-3 (Homo sapiens)  false (0)
 9  Cc1ccc(Cc2cnc(CCc3ccc(-c4ccccc4C(=O)O)cc3)[nH]2)cc1  Bombesin receptor subtype-3 (Homo sapiens)  false (0)
10  CCC(C)(CC)Cc1cnc(CCc2ccc(-c3ccccc3C(=O)O)cc2)[nH]1  Bombesin receptor subtype-3 (Homo sapiens)   true (1)
11  CCCCc1cnc(C(CCCO)Cc2ccc(-c3ccccc3C(=O)O)cc2)[nH]1 (stereo unspecified)  Bombesin receptor subtype-3 (Homo sapiens)  false (0)
12  N#Cc1cccc(Cc2cnc(CCc3ccc(-c4ccccc4C(=O)O)cc3)[nH]2)c1  Bombesin receptor subtype-3 (Homo sapiens)  false (0)
13  O=C(O)c1ccccc1-c1ccc(CCc2ncc(Cc3cccc(Cl)c3)[nH]2)cc1  Bombesin receptor subtype-3 (Homo sapiens)  false (0)
14  O=C(O)c1ccccc1-c1ccc(CCc2ncc(CC3CCC3)[nH]2)cc1  Bombesin receptor subtype-3 (Homo sapiens)  false (0)
15  O=C(O)c1ccccc1-c1ccc(CCc2ncc(CCc3ccccc3)[nH]2)cc1  Bombesin receptor subtype-3 (Homo sapiens)  false (0)
16  COc1cccc(Cc2cnc(CCc3ccc(-c4ccccc4C(=O)O)cc3)[nH]2)c1  Bombesin receptor subtype-3 (Homo sapiens)  false (0)
17  CC(C)(C)c1cnc(CCc2ccc(-c3ccccc3C(=O)O)cc2)[nH]1  Bombesin receptor subtype-3 (Homo sapiens)  false (0)
18  O=C(O)c1ccccc1-c1ccc(CCc2nc(-c3ccccc3)c[nH]2)cc1  Bombesin receptor subtype-3 (Homo sapiens)  false (0)
19  O=C(O)c1ccccc1-c1ccc(CCc2ncc(CC3CCOCC3)[nH]2)cc1  Bombesin receptor subtype-3 (Homo sapiens)  false (0)
20  O=C(O)c1ccccc1-c1ccc(CCc2ncc(Cc3ccccc3F)[nH]2)cc1  Bombesin receptor subtype-3 (Homo sapiens)   true (1)

====

# system_tested: Bombesin receptor subtype-3 (Homo sapiens)
# experiment: Agonistic activity at human BRS3 expressed in HEK293AEO cells by aequorin bioluminescence assay
Reported EC50 is given for each of the following compounds.
measured_endpoint: EC50 (nM)

> print(dat)
                                   compound  observed
1  O=C(O)c1ccccc1-c1ccc(CCc2ncc(CC3CCCCC3)[nH]2)cc1        41
2  COc1ccccc1Cc1cnc(CCc2ccc(-c3ccccc3C(=O)O)cc2)[nH]1      1720
3  O=C(O)c1ccccc1-c1ccc(CCc2ncc(Cc3ccc(F)cc3)[nH]2)cc1      1600
4  N#Cc1ccccc1Cc1cnc(CCc2ccc(-c3ccccc3C(=O)O)cc2)[nH]1      5480
5  CCCCc1cnc(C(C)Cc2ccc(-c3ccccc3C(=O)O)cc2)[nH]1 (stereo not given)      2760

====

# system_tested: UniProt O54798
# experiment: Agonistic activity at mouse BRS3 expressed in HEK293AEO cells at 10 uM by aequorin bioluminescence assay relative to dY peptide
# Format: functional, cell-based
measured_endpoint: Activity (%)

> print(dat)
                                    compound  quantity.unit  observed
 1  O=C(O)c1ccccc1-c1ccc(CCc2ncc(CCc3ccccc3)[nH]2)cc1              %        89
 2  N#Cc1ccc(Cc2cnc(CCc3ccc(-c4ccccc4C(=O)O)cc3)[nH]2)cc1              %        85
 3  CC(C)(C)Cc1cnc(CCc2ccc(-c3ccccc3C(=O)O)cc2)[nH]1              %       105
 4  O=C(O)c1ccccc1-c1ccc(CCc2ncc(CCC3CCCCC3)[nH]2)cc1              %       101
 5  CCCCc1cnc(Cc2ccc(-c3ccccc3C(=O)O)cc2)[nH]1              %         0
 6  COc1ccccc1Cc1cnc(CCc2ccc(-c3ccccc3C(=O)O)cc2)[nH]1              %       101
 7  O=C(O)c1ccccc1-c1ccc(CCc2ncc(Cc3cccc(Cl)c3)[nH]2)cc1              %        98
 8  CC(C)(C)CCc1cnc(CCc2ccc(-c3ccccc3C(=O)O)cc2)[nH]1              %        99
 9  O=C(O)c1ccccc1-c1ccc(CCc2ncc(-c3ccccc3)[nH]2)cc1              %       101
10  CCCCc1cnc(C(C)Cc2ccc(-c3ccccc3C(=O)O)cc2)[nH]1 (stereo not given)              %       110

====

# system_tested: Bombesin receptor subtype-3 (Mus musculus) (UniProt O54798)
# Sequence (O54798 whole entry): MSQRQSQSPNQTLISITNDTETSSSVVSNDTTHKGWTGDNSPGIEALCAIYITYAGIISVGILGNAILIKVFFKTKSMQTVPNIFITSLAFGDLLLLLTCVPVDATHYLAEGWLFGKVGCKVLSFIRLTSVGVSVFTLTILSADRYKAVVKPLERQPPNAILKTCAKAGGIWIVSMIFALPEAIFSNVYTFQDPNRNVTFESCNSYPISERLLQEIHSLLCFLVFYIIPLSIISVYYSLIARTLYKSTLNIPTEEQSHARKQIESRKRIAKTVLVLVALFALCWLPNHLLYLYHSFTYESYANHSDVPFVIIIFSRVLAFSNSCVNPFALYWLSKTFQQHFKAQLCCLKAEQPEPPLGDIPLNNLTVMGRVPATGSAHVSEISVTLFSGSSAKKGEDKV
# experiment: Agonistic activity at mouse BRS3 expressed in HEK293AEO cells at 10 uM by aequorin bioluminescence assay relative to dY peptide
# Type: functional, cell-based
measured_endpoint: Activity (%)

> print(dat)
                              smiles.string  measured.endpoint  observed
1  Cc1cccc(Cc2cnc(CCc3ccc(-c4ccccc4C(=O)O)cc3)[nH]2)c1           Activity        89
2  COc1cccc(Cc2cnc(CCc3ccc(-c4ccccc4C(=O)O)cc3)[nH]2)c1           Activity        80
3  O=C(O)c1ccccc1-c1ccc(CCc2ncc(Cc3ccccc3Cl)[nH]2)cc1           Activity       109
4  O=C(O)c1ccccc1-c1ccc(CCc2ncc(Cc3cccc(F)c3F)[nH]2)cc1           Activity       110
5  O=C(O)c1ccccc1-c1ccc(CCc2ncc(Cc3cccc(F)c3)[nH]2)cc1           Activity       108
6  CC(C)(C)c1cnc(CCc2ccc(-c3ccccc3C(=O)O)cc2)[nH]1           Activity       108
7  CCC(C)(CC)Cc1cnc(CCc2ccc(-c3ccccc3C(=O)O)cc2)[nH]1           Activity       116

====

# system_tested: Neuromedin-B receptor (Homo sapiens)
# Sequence (P28336 whole entry): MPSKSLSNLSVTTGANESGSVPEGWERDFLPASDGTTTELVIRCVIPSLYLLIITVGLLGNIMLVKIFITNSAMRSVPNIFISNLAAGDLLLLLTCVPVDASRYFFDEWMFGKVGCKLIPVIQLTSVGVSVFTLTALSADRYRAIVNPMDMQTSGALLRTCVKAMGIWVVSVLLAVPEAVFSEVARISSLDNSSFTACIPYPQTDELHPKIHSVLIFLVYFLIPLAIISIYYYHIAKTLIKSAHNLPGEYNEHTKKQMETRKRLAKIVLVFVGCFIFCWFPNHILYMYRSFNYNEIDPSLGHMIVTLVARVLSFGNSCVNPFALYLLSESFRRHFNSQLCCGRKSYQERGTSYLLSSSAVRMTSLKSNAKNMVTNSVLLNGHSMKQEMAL
# experiment: Displacement of [125I]-[D-Tyr6,beta-Ala11,Phe13,Nle14]bombesin from human bombesin BB1 receptor expressed in NFAT-CHO cells after 2 hrs by liquid scintillation counting
# Type: cell-based
pIC50: −log10 of the molar value.
measured_endpoint: pIC50

> print(dat)
                                   molecule  measured.endpoint  observed
1  CCCCc1cnc(C(CCCO)Cc2ccc(-c3ccccc3C(=O)O)cc2)[nH]1 (stereo unspecified)              pIC50    < 5.00

====

Reported pEC50 is given for each of the following compounds.
# system_tested: Bombesin receptor subtype-3 (Homo sapiens)
# experiment: Agonistic activity at human BRS3 expressed in HEK293AEO cells by aequorin bioluminescence assay
pEC50: −log10 of the molar value.
measured_endpoint: pEC50

> print(dat)
                                   compound  observed
1  CC(C)(C)Cc1cnc(CCc2ccc(-c3ccccc3C(=O)O)cc2)[nH]1      6.97
2  CCCCc1cnc(C(CCC)Cc2ccc(-c3ccccc3C(=O)O)cc2)[nH]1 (stereo not given)      5.93
3  COc1ccc(Cc2cnc(CCc3ccc(-c4ccccc4C(=O)O)cc3)[nH]2)cc1      5.27
4  O=C(O)c1ccccc1-c1ccc(CCc2ncc(Cc3cccc(F)c3F)[nH]2)cc1      7.06
5  O=C(O)c1ccccc1-c1ccc(CCc2ncc(CC3CCCCCC3)[nH]2)cc1      7.06

====

Reported pEC50 is given for each of the following molecules.
# system_tested: Bombesin receptor subtype-3 (Homo sapiens)
# experiment: Agonistic activity at human BRS3 expressed in HEK293AEO cells by aequorin bioluminescence assay
pEC50: −log10 of the molar value.
measured_endpoint: pEC50

> print(dat)
                                   molecule  observed
1  CCCCc1cnc(C(CC)Cc2ccc(-c3ccccc3C(=O)O)cc2)[nH]1 (stereo not given)      5.57
2  O=C(O)c1ccccc1-c1ccc(CCc2ncc(Cc3cccc(F)c3)[nH]2)cc1      6.80
3  O=C(O)c1ccccc1-c1ccc(CCc2ncc(CCC3CCCCC3)[nH]2)cc1      6.19
4  O=C(O)c1ccccc1-c1ccc(CCc2ncc(CC3CCCC3)[nH]2)cc1      6.88
5  CCCCc1cnc(CCCc2ccc(-c3ccccc3C(=O)O)cc2)[nH]1      5.25
